Reference source for all entries: patent US20100168192A1

molecular target: BK channels (Homo sapiens, UniProt Q12791); test: BK channel opening activity, two-electrode voltage clamp in Xenopus laevis oocytes; details: BK channels heterologously expressed in Xenopus laevis oocytes; 0.01-31.6 μM; ΔV at control conductance level of +100 mV, fitted to sigmoidal logistic equation; read-out: EC50 for the left-shift of the BKCa-activation curve
Sequence (Q12791 whole entry): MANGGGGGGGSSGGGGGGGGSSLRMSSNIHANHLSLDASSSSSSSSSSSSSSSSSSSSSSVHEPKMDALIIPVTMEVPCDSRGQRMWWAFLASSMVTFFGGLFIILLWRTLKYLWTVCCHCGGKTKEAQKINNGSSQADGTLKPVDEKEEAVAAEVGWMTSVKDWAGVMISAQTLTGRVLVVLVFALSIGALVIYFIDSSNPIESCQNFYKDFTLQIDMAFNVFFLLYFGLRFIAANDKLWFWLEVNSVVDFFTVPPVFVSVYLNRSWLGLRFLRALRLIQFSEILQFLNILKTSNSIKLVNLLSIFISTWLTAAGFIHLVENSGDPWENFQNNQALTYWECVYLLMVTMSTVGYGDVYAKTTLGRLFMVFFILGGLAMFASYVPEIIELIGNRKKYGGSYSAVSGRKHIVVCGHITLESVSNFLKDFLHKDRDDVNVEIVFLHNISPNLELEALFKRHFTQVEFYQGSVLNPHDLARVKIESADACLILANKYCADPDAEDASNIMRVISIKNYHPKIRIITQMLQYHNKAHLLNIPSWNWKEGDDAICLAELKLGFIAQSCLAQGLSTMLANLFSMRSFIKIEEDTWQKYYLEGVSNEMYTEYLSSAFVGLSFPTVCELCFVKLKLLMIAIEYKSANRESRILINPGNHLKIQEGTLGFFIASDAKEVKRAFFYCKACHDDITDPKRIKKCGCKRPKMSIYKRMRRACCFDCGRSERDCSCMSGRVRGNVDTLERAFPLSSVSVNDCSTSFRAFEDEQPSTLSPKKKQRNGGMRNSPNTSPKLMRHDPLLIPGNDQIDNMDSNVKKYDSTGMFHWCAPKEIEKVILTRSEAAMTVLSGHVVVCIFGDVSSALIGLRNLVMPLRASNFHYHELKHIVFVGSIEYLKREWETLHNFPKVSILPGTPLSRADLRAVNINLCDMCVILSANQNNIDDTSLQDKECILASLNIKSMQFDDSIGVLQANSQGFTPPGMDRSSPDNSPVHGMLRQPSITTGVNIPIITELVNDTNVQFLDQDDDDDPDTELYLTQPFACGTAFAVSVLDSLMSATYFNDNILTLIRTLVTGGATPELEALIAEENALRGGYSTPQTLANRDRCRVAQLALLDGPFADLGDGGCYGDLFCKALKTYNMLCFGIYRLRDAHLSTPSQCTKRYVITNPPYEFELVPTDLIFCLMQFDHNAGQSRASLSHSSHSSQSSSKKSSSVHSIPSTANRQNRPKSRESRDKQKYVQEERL
readout name: EC50 (nM)
One number for each entry, in nM.

Q) Give a short answer stating reported EC50 for "CS(=O)(=O)NC(=O)Cc1noc2ccccc12" .
A) 300
